# Tested on: S180 tumor
# protocol.details: Biodistribution in tumor-bearing mice
# Format: in vivo
# experimental.setup: 120 min, i.v., mice bearing S180 tumor, mean ± SD
experimental.readout: Tumor (% ID/g)
Only the number, expressed in % ID/g, is required.

Query block: For the molecule O=C(Cc1ccc(C[N+]#[C][99Tc+]([C]#[N+]Cc2ccc(CC(=O)NC3C(O)OC(CO)C(O)C3O)cc2)([C]#[N+]Cc2ccc(CC(=O)NC3C(O)OC(CO)C(O)C3O)cc2)([C]#[N+]Cc2ccc(CC(=O)NC3C(O)OC(CO)C(O)C3O)cc2)([C]#[N+]Cc2ccc(CC(=O)NC3C(O)OC(CO)C(O)C3O)cc2)[C]#[N+]Cc2ccc(CC(=O)NC3C(O)OC(CO)C(O)C3O)cc2)cc1)NC1C(O)OC(CO)C(O)C1O (stereo not shown) [^99mTc-4-CNMBDG] , give its measured Tumor value.
Result block: 6.22
